Each recorded value in this set is attributed to patent US20240376151A1.

Target: RNF31 PUB domain (Homo sapiens)
Construct: MBP-TEV (N, cleaved yes); made in house; host or cells: E. coli BL21 (DE3) pLysS
Sequence (Q96EP0 1-179): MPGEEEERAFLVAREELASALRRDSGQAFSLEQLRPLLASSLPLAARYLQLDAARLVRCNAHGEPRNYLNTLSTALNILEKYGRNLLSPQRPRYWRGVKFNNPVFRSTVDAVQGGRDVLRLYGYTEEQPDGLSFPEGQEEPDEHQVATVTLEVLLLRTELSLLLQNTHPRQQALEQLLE
Assay: Phage Library Screening with NGS, RNF31 PUB domain
Format: binding
Settings: clusters C41-C45; BLANK screen, column 3 of 5
readout.name: Phage library screen NGS readout, BLANK
Hey, just send me the number, nothing else.

Please review the entries below; each comes with its answer.
>  <biopolymer.sequence>
DPAYYTCDWAAIYCDYH

>  <readout.name>
Phage library screen NGS readout, BLANK

>  <quantitative.result>
0

$$$$
>  <biopolymer.sequence>
DPAWTDCDWAALYCDES

>  <readout.name>
Phage library screen NGS readout, BLANK

>  <quantitative.result>
0

$$$$
>  <biopolymer.sequence>
DPAIDACYDAAVMCTYV

>  <readout.name>
Phage library screen NGS readout, BLANK

>  <quantitative.result>
0

$$$$
>  <biopolymer.sequence>
DPALEICWDAAIQCSYV

>  <readout.name>
Phage library screen NGS readout, BLANK

>  <quantitative.result>
0

$$$$
>  <biopolymer.sequence>
DPAQYQCDIAAQVCSTY

>  <readout.name>
Phage library screen NGS readout, BLANK

>  <quantitative.result>
0

$$$$
>  <biopolymer.sequence>
DPARRECWDAAILCTYY

>  <readout.name>
Phage library screen NGS readout, BLANK

>  <quantitative.result>
1

$$$$
>  <biopolymer.sequence>
DPAQDWCMYAAYECDAH

>  <readout.name>
Phage library screen NGS readout, BLANK

>  <quantitative.result>
2

$$$$
>  <biopolymer.sequence>
DPAFTDCQLAAAVCMTY

>  <readout.name>
Phage library screen NGS readout, BLANK

>  <quantitative.result>
0

$$$$
>  <biopolymer.sequence>
DPALDYCLYAAYDCMYA

>  <readout.name>
Phage library screen NGS readout, BLANK

>  <quantitative.result>
0

$$$$
>  <biopolymer.sequence>
DPAWEHCLYAAYDCTHE

>  <readout.name>
Phage library screen NGS readout, BLANK

>  <quantitative.result>
0

$$$$

get_value(item= "DPAEEYCLEAAILCTYD" , readout=Phage library screen NGS readout, BLANK) returns 0

Note to self: Phage library screen NGS readout, BLANK recorded for "DPAWWDCMYAASHCDTV" was 0

So for "DPAWMDCLYAAYDCQHM" , the logged Phage library screen NGS readout, BLANK turned out to be 1

Quick note, Phage library screen NGS readout, BLANK for "DPAHDWCLYAAYDCRVY" landed at 0

Sample "DPAADDCEWAALYCSFH" ; Phage library screen NGS readout, BLANK observed: 0

Measured Phage library screen NGS readout, BLANK, "DPAWDYCMYAAYDCNHS" : 0

// sample "DPAWQECVIAALVCDTY" , its Phage library screen NGS readout, BLANK was 1

# Phage library screen NGS readout, BLANK of "DPAEQFCLYAAYDCYSE" = 1

Phage library screen NGS readout, BLANK reading for "DPAAEDCHIAAMVCMTY" : 0

So, "DPAYDWCLYAAYQCDQN" ? Its Phage library screen NGS readout, BLANK was 0

Looking up "DPAEDECQDAAILCSYN" , I found its Phage library screen NGS readout, BLANK recorded as 0

Phage library screen NGS readout, BLANK recorded for this sequence, "DPADWDCMYAAQDCFED" , is 0

Phage library screen NGS readout, BLANK in this record for "DPAFWACLYAAEECVVD" : 0
